# Test system: NupR (NagR2) (Bacillus thuringiensis BMB171), ORF:032de0b7
# method.description: EMSA
# reported.conditions: NupR: 10 mM Tris-HCl pH 7.5, 50 mM NaCl, 0.5 mM DTT, 4% glycerol, 200 ng poly(dI-dC), 25 C 30 min, ComK/CcpA/PurR: 10 mM Tris-HCl pH 8.0, 50 mM KCl
assay.readout: binding

| primary.sequence | observed.measurement |
| --- | --- |
| CTAATACAACACGGTTAATACCTTTTTTCATTTCAAAATTCCTCGCAATTTCATTGATTTTATTATGTAAGATAATACGTCTTACTTCTATAGAGTCATATCTAGTTTATTACATTTTATAAAAGATATTCAAGTATTTGAAAATGTATCCGTGCAAATCCGCGAACAAAACATAGGAATTCAGTGAACCGAATATAATTCAGTAAAATCCTTTGTAAAAGGGGAAATGGCATGG (double strand) [ldh promoter] | binds |
| TGCATACTTACTCACCATCCCATTAGAACAATCTAATTTTTTGAGTTGTCATACCACTACAATAATGTGAATTCGACAATTTTTGATATGAAATAATGCATAATATATATAAAATTCGGCAAATTTTTCATACAATTCATCTCACATACAATAATAGATTAGGAGTGTTATAGATGAATTATAG (double strand) [baci promoter] | binds |
| GGTGAAATAGTATGGTCATCACGTAATAAAGTATCATCTAAATCTAAAACAATCATTTTATAAGTCATATAGAAAATTCCTTTCTTTAATTGAAATCAAAATACATGTTCATGAAGATGTTGAGGAATAATAGTAAGACATCAAACCTCTTTGAAAAGAAGTAGATAAATTATTATGAGTTGTTGCTCATAATATTGGTTAATAATCATTGGGGAAGAATAAAACCCCAATGATTAAAGTTTGATTTTATCGTAACAACTCTAAAGGTAGAGTGCAATAATGGAAGTT (double strand) [had promoter] | binds |
